This collection of values is drawn from ChEMBL document CHEMBL3817809.

testedOn: Prolyl endopeptidase (Sus scrofa)
Sequence (P23687 whole entry): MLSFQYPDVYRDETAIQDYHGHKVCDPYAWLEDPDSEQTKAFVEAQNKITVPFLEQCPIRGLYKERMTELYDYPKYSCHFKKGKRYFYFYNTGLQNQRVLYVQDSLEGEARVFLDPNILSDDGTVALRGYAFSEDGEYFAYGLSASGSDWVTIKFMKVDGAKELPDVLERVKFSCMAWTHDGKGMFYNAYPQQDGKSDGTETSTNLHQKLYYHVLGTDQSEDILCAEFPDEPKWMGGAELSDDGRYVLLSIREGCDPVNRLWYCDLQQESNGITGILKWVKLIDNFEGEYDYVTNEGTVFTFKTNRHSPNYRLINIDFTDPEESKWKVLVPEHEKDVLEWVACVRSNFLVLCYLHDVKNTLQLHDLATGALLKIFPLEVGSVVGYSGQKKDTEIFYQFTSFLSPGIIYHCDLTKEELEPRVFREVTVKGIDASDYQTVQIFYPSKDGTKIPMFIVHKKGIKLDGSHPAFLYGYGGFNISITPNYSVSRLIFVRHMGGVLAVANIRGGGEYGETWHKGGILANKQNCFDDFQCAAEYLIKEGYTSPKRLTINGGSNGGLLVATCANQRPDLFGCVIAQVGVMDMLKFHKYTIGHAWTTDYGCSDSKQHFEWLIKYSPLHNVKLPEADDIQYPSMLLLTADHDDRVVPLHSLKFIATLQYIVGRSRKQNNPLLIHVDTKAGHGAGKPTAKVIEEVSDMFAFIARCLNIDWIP
procedureDetails: Inhibition of poricne POP in cell lysates incubated for 60 mins using Z-Gly-Pro-AMC as a substrate by fluorescence assay
endpointName: pIC50
pIC50 (log units): -log10 of the concentration in mol/L.

Value of pIC50 reported for the compound N#C[C@@H]1CS[C@H]2C[C@@H](NC(=O)OCc3ccccc3)C(=O)N12 is 6.70

----------
procedureDetails: Intrinsic clearance in human liver microsomes assessed per mg protein by LC-MS method
Format: ADME
measurementSetup: read-out: CLH
endpointName: microsomal CLint

Value of microsomal CLint reported for the compound N#C[C@@H]1CCCN1C(=O)[C@@H]1CC=C[C@H]2CN(Cc3ccccc3)C(=O)[C@@H]21 is 4 µL/min/mg
